Where do these numbers come from? They come from ChEMBL document CHEMBL1125592.

// Vasorelaxant effect lookup, one value per entry
# Species: Oryctolagus cuniculus
# Method description: Vasorelaxant effect at a concentration of 10e-6 M on rabbit aortic rings previously contracted with 50 mM KCl.
# Assay type: functional, Aorta
# Design: unit not given here
Form field (numeric): enter value without unit.

Reference set (3 entries):
Compound	Vasorelaxant effect
CCO/C(O)=C1\C(CS(=O)(=O)c2ccccc2)=NC(C)=C(C#N)C1c1ccccc1 (stereo unspecified)	1
CCO/C(O)=C1\C(CS(=O)(=O)c2ccc(N)cc2)=NC(C)=C(C#N)C1c1ccccc1C(F)(F)F (stereo unspecified)	5
COC(=O)C1=C(C)NC(C)=C(C(=O)OC)C1c1ccccc1[N+](=O)[O-]	89.4

Recorded Vasorelaxant effect (compound CC1=C(C#N)C(c2ccccc2C(F)(F)F)/C(=C(\O)OC(C)C)C(CSc2ccccc2)=N1 (stereo unspecified) ): 2

Recorded Vasorelaxant effect (compound CCOC(=O)C1=C(CS(=O)(=O)c2ccncc2)NC(C)=C(C#N)C1c1ccccc1C(F)(F)F (stereo in doubt; 54) ): 6.2

Recorded Vasorelaxant effect (compound CCO/C(O)=C1\C(CS(=O)(=O)c2ccccc2)=NC(C)=C(C#N)C1c1ccccc1C(F)(F)F (stereo unspecified) ): 24
